- target_of_assay: T1, EGFR ectodomain (residues 25-525) (human, UniProt P00533 25-525)
- T1 construct: also called EGER; Epidermal growth factor receptor
- assay_protocol: BLI (Octet); biotinylated target on streptavidin sensors, miniprotein as analyte
pKd: −log10 of the molar value.
Below, each entry is listed with its recorded pKd.
value_type: pKd

INSERT INTO assay_data (binder, readout_value) VALUES
  ('EGFRn_mb (designed binder) MSHHHHHHHHSENLYFQSGGGDHWEEVFRWALEHLQEATQQNDPQKAKKILEEAHKWLRRELSEEEARAVVRWLKQLVDRELS', 8.77),
  ('EGFRc_mb (designed binder) MSHHHHHHHHSENLYFQSGGGSLDEAKKLLQEAEKLARKLNDRMELAYVEFLKHILETAKKQNDKRTIESVRDMARDALEELQS', 8.17);
